Target: IKKβ (Homo sapiens)
Construct: purchased Invitrogen (Paisley, UK)
Sequence (O14920 1-756): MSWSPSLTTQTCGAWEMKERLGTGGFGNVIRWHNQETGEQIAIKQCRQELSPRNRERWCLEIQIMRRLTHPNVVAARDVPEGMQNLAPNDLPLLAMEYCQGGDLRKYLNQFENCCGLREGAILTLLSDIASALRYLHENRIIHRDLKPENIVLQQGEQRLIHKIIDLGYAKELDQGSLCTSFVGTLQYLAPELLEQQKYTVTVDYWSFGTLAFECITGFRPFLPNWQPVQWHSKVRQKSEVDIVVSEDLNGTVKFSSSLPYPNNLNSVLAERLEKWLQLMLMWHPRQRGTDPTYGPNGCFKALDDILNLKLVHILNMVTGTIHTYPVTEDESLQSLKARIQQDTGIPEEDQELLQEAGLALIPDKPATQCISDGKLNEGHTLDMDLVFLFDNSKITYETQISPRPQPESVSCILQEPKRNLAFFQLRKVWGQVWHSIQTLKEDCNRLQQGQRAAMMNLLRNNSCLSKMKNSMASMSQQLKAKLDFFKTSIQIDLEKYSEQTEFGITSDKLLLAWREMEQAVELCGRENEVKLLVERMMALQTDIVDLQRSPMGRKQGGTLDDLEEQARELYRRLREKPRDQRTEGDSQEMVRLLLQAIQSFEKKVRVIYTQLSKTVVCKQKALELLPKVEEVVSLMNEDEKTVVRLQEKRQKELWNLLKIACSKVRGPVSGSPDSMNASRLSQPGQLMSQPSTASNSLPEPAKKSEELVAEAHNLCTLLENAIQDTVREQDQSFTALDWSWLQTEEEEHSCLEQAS
Assay: IKKβ enzyme assay (Z'-LYTE, Invitrogen)
Format: biochemical
Conditions: Acid: the acid of the drawn ester (Example 1); read-out: Inhibition of IKKβ (IC50 nM), Acid
metric.name: IC50 (nM)
Answer in nM, number only, no unit symbol.

Value of IC50 reported for the compound CC(C)C[C@H](NCc1ccc(Cc2cc(C(N)=O)c(NC(N)=O)s2)cc1)C(=O)OC1CCCC1 is 369
